# IC50 annotations
Biological target: TNFα / TNFα receptor (TNFα R1/Fc) (Homo sapiens, UniProt P01375)
Construct: purchased R&D Systems
Sequence (P01375 77-233 limits assumed, species assumed): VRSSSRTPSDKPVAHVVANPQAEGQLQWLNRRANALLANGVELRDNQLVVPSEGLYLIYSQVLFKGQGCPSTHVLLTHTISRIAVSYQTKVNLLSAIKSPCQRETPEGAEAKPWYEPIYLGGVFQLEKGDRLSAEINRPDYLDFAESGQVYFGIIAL
Assay: Inhibition of binding of TNFα to the TNFα receptor (plate ELISA competition)
Settings: Table 2; read-out: Activity (IC50, inhibition of TNFα binding to TNFα R1/Fc)
Experimental: The compounds listed in Table 2 below were assayed for ability to inhibit binding of TNFα to the TNFα receptor (TNFα R1/Fc). The assays were performed as described in the following procedure: TNFα (R&D Systems) was coated on high binding plate wells (Corning 96-well) at a single uniform concentration of 15 nM, 100 μL/well in PBS. […] The TMB reaction was stopped with the addition of 0.5N HCl and then the plate was read for absorbance at 450 nm.
Numbered stars: 1 amine (or outer) side, 2 acyl side, 3 side chain; on linkers, the order of the positions; unused ones are H or OH. Bridge positions count the residues as written; N and C are the ends. Square brackets hold non-standard residues; d marks the D form. Peptide text beside a SMILES is read from it. * marks the point of attachment. Gly(N-(4-CH2NH-benzyl)) = O=C(CN(Cc1ccc(CN[*:3])cc1)[*:1])[*:2]; Bip = N[C@@H](Cc1ccc(-c2ccccc2)cc1)C(=O)O; dPhe(4-NH2) = Nc1ccc(C[C@@H](N)C(=O)O)cc1; Phe(4-NH2) = Nc1ccc(C[C@H](N)C(=O)O)cc1; d(hPhe) = N[C@H](CCc1ccccc1)C(=O)O; Malonyl = O=C(CC(=O)[*:2])[*:1]; d2Thi = N[C@H](Cc1cccs1)C(=O)O; Suc = O=C(CCC(=O)[*:2])[*:1]; Bn = c1ccc(C*)cc1

# count of solved cases: 5
O=C1CCC(=O)N[C@H](CCc2ccccc2)C(=O)N[C@@H](Cc2ccc(OCc3ccccc3)cc2)C(=O)N[C@H](Cc2ccccc2)C(=O)N[C@@H](C(=O)O)Cc2ccc(cc2)N1 [Compound 173] ([d(hPhe)]Y(Bn)[dF][dPhe(4-NH2)]-OH; linker N-4 via Suc) : 10 to 30 µM
O=C(O)CCCNC(=O)[C@@H]1Cc2ccc(cc2)OCC(=O)N[C@@H](Cc2ccc(-c3ccncc3)cc2)C(=O)N[C@H](Cc2ccc(-c3ccccc3)cc2)C(=O)N[C@@H](CCc2ccccc2)C(=O)N1 : < 10 µM
O=C1COc2ccc(cc2)C[C@@H](C(=O)NCS(=O)(=O)O)NC(=O)[C@H](CCc2ccccc2)NC(=O)[C@@H](Cc2ccc(-c3ccccc3)cc2)NC(=O)[C@H](Cc2ccc(-c3ccncc3)cc2)N1 : < 10 µM
O=C(O)[C@@H]1Cc2ccc(cc2)NC(=O)[C@H](O)[C@@H](O)C(=O)N[C@H](Cc2ccccc2)C(=O)N[C@@H](Cc2ccc(-c3ccccc3)cc2)C(=O)N[C@H](Cc2ccccc2)C(=O)N1 : < 10 µM
C[C@@H](NC(=O)[C@@H]1Cc2ccc(cc2)OCC(=O)N[C@@H](Cc2cccs2)C(=O)N[C@@H](Cc2ccc(-c3ccccc3)cc2)C(=O)N[C@@H](Cc2ccccc2)C(=O)N1)C(=O)O : < 10 µM

Qu. Entry under review: O=C1COc2ccc(cc2)C[C@@H](C(=O)O)NC(=O)[C@H](Cc2ccc(F)cc2)NC(=O)[C@@H](Cc2ccc(-c3ccccc3)cc2)NC(=O)[C@H](Cc2ccncc2)N1 . Reported IC50?
Ans. < 10 µM

Qu. Entry under review: O=C(O)[C@@H]1Cc2ccc(cc2)NC(=O)[C@H](O)[C@@H](O)C(=O)N[C@H](Cc2cccs2)C(=O)N[C@@H](Cc2ccc(-c3ccccc3)cc2)C(=O)N[C@@H](CCc2ccccc2)C(=O)N1 . Reported IC50?
Ans. < 10 µM

Qu. Entry under review: O=C1COc2ccc(cc2)C[C@@H](C(=O)O)NC(=O)[C@@H](Cc2ccccc2)NC(=O)[C@@H](Cc2ccc(-c3ccccc3)cc2)NC(=O)[C@H](Cc2cccs2)N1 . Reported IC50?
Ans. > 100 µM

Qu. Entry under review: O=C(O)CCCNC(=O)[C@@H]1Cc2ccc(cc2)OCC(=O)N[C@@H](Cc2cccs2)C(=O)N[C@H](Cc2ccc(-c3ccccc3)cc2)C(=O)N[C@@H](Cc2ccccc2)C(=O)N1 . Reported IC50?
Ans. < 10 µM

Qu. Entry under review: O=C1COc2ccc(cc2)C[C@@H](C(=O)NCCO)NC(=O)[C@H](CCc2ccccc2)NC(=O)[C@@H](Cc2ccc(-c3ccccc3)cc2)NC(=O)[C@H](Cc2ccncc2)N1 . Reported IC50?
Ans. > 100 µM

Qu. Entry under review: O=C(O)CN1Cc2ccc(cc2)CNC(=O)CCC(=O)N[C@H](Cc2cccs2)C(=O)N[C@@H](Cc2ccc(-c3ccccc3)cc2)C(=O)N[C@H](Cc2ccccc2)C1=O [Compound 186] ([d2Thi][Bip][dF][Gly(N-(4-CH2NH-benzyl))]-OH; linker N-4 via Suc) . Reported IC50?
Ans. 30 to 100 µM

Qu. Entry under review: O=C1COc2ccc(cc2)C[C@@H](C(=O)N[C@H](Cc2ccccc2)C(=O)O)NC(=O)[C@H](CCc2ccccc2)NC(=O)[C@@H](Cc2ccc(-c3ccccc3)cc2)NC(=O)[C@H](Cc2ccc(-c3ccncc3)cc2)N1 . Reported IC50?
Ans. < 10 µM

Qu. Entry under review: O=C1COc2ccc(cc2)C[C@@H](C(=O)O)NC(=O)[C@@H](Cc2ccc(F)cc2)NC(=O)[C@H](Cc2ccc(-c3ccccc3)cc2)NC(=O)[C@@H](Cc2cccs2)N1 . Reported IC50?
Ans. > 100 µM

Qu. Entry under review: O=C1CC(=O)N[C@H](Cc2cccs2)C(=O)N[C@@H](Cc2ccc(-c3ccccc3)cc2)C(=O)N[C@H](Cc2ccccc2)C(=O)N[C@H](C(=O)O)Cc2ccc(cc2)N1 [Compound 5] ([d2Thi][Bip][dF][Phe(4-NH2)]-OH; linker N-4 via Malonyl) . Reported IC50?
Ans. 30 to 100 µM
